Biological target: beta-catenin (Homo sapiens, UniProt P35222)
Construct: made in house; host or cells: E. coli BL21 (DE3) pLysS
Sequence (P35222 134-665): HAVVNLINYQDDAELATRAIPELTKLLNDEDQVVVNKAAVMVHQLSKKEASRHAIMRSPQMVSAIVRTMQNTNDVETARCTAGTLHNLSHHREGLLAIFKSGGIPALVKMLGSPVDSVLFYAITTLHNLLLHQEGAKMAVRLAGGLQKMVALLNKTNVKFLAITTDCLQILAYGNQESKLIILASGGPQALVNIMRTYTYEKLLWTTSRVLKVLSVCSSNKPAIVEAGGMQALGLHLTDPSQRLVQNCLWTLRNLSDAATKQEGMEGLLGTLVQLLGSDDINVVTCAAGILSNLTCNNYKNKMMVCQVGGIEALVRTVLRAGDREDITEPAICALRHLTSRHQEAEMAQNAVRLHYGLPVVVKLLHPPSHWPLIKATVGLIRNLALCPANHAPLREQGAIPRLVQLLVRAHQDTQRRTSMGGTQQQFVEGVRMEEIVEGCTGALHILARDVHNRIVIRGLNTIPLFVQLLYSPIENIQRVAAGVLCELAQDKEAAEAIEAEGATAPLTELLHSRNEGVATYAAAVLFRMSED
Assay: Phage Library Screening with NGS, beta-catenin
Type: binding
Settings: beta-catenin target concentration 100; no competitor
MEASUREMENT_TYPE: Target Concentration 100 (phage screen NGS readout)

Would you please look over these solved cases?
ENTRY_SEQUENCE: DPAVLECHIAAWECRMD
ASSAY_TARGET: beta-catenin (Homo sapiens, UniProt P35222)
MEASURED_NUMBER: 24

ENTRY_SEQUENCE: DPAILDCHIAAIQCFHD
ASSAY_TARGET: beta-catenin (Homo sapiens, UniProt P35222)
MEASURED_NUMBER: 6

ENTRY_SEQUENCE: DPAHWRCEHAALLCWYN
ASSAY_TARGET: beta-catenin (Homo sapiens, UniProt P35222)
MEASURED_NUMBER: 51

ENTRY_SEQUENCE: DPAEVDCIMAAHICVWD
ASSAY_TARGET: beta-catenin (Homo sapiens, UniProt P35222)
MEASURED_NUMBER: 31

ENTRY_SEQUENCE: DPADEDCILAAHVCRHF
ASSAY_TARGET: beta-catenin (Homo sapiens, UniProt P35222)
MEASURED_NUMBER: 11

a: DPAEFYCEMAAVHCELL
b: DPAMWICEHAALNCEIR
c: DPAENTCSWAAEHCALV
d: DPAYWVCEHAALLCTDY
e: DPAFESCFLAAHICYWE
Sort low-to-high on Target Concentration 100 (phage screen NGS readout), please. The reply should contain the labels ordered as requested.
c, e, a, b, d
(c: 0, e: 10, a: 17, b: 46, d: 85)

I: DPAILNCHMAAWDCNFY
II: DPAQNICEWAALHCDLI
For the pair I and II , which entry has the numerically smaller recorded Target Concentration 100 (phage screen NGS readout)? Answer with the label corresponding to your selection.
I

P: DPAFLTCHIAAWACSEQ
Q: DPAHWHCEHAALLCASV
Of the two listed items, P and Q , which carries the larger Target Concentration 100 (phage screen NGS readout) figure? Answer with the label corresponding to your selection.
Q

a: DPAILDCQLAAMDCSTW
b: DPAILQCYEAAFSCHYQ
Of the two listed items, a and b , which carries the larger Target Concentration 100 (phage screen NGS readout) figure? Answer with the label corresponding to your selection.
b
